Molecular target: Coagulation factor X (Homo sapiens, UniProt P00742)
Sequence (P00742 41-179 limits assumed): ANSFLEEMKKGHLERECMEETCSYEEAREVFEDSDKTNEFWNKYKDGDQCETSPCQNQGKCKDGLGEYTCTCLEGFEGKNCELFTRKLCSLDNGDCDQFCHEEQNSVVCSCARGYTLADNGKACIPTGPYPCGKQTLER
Sequence (P00742 235-488 limits assumed): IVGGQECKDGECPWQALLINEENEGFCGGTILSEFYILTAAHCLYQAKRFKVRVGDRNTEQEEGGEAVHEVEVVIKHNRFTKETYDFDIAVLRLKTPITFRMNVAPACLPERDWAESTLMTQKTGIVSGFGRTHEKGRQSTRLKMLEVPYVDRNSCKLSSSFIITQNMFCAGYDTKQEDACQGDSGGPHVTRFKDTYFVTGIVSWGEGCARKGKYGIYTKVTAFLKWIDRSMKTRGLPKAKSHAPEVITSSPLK
Assay: Inhibition of recombinant factor Xa (unknown origin) using Bz-Ile-Glu-Gly-Arg-pNA as substrate preincubated for 30 mins followed by substrate addition by chromogenic assay
Outcome Measure: IC50 (µM)
Record the value in µM, omitting the unit from your answer.

Compound: CC(C)C[C@H](NC(=O)OC1(Cc2ccccc2)CCNCC1)C(=O)N[C@@H](CCCNC(=N)N)C(=O)c1nc2ccccc2s1
Number: 6.5

We next turn to a different compound, shown below.
With Coagulation factor X (Homo sapiens, UniProt P00742) as the test system, CC1CN(CC2CCN(Cc3ccccc3)CC2)C(=O)N(c2cccc(C(=N)N)c2)C1 (stereo not given) showed IC50 of 0.38

---

Reported IC50 values for a set of molecules
Target: Hepatocyte growth factor activator serine protease (Homo sapiens)
Experiment: Inhibition of recombinant HGFA serine protease domain (unknown origin) using Boc-QLR-AMC as substrate preincubated for 30 mins followed by substrate addition by fluorescence based assay

Molecule: CC1CN(CC2CCN(Cc3ccccc3)CC2)C(=O)N(c2cccc(C(=N)N)c2)C1 (stereo not drawn)
Assay System: Hepatocyte growth factor activator serine protease (Homo sapiens)
Result: 20 µM
--
Molecule: CC(=O)N1CCC(OC(=O)N[C@@H](CC(C)C)C(=O)N[C@@H](CCCNC(=N)N)C(=O)c2nc3ccccc3s2)CC1
Assay System: Hepatocyte growth factor activator serine protease (Homo sapiens)
Result: > 20 µM

We next turn to a different molecule, shown below.
Reported IC50 ( CC(C)C[C@H](NC(=O)OC1CCN(S(=O)(=O)c2cccc(F)c2)CC1)C(=O)N[C@@H](CCCNC(=N)N)C(=O)c1nc2ccccc2s1 ) = > 20 µM

---

Target: Suppressor of tumorigenicity 14 protein (Homo sapiens)
Sequence (Q9Y5Y6 whole entry, the tested form may be a part): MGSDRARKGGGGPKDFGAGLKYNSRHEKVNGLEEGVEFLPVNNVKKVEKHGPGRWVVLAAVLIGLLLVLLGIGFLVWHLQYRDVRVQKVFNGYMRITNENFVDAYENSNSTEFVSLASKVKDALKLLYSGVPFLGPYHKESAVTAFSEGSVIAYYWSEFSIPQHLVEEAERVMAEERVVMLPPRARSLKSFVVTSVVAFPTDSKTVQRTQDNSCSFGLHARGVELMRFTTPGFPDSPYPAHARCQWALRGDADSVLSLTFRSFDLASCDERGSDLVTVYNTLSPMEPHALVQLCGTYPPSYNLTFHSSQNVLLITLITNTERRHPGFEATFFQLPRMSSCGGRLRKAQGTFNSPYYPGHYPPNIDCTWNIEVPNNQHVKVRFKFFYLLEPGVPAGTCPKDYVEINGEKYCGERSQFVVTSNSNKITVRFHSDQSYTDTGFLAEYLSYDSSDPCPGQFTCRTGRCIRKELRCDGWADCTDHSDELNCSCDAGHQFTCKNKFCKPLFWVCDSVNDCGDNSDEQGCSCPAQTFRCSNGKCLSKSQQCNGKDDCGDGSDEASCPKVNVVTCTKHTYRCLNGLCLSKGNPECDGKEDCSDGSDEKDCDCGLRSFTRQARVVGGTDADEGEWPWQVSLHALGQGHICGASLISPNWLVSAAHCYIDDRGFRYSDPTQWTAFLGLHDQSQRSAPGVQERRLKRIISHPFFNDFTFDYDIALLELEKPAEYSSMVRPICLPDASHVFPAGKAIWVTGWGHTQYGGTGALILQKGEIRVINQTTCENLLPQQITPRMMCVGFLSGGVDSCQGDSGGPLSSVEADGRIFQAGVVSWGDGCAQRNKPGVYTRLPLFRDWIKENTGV
Assay: Inhibition of recombinant human N-terminal met-His6-tagged matriptase catalytic domain (Gly596 to Val855 residues) expressed in Escherichia coli using Boc-QAR-AMC as substrate preincubated for 30 mins followed by substrate addition by fluorescence based assay
Outcome Measure: IC50 (µM)
Record the value in µM, omitting the unit from your answer.

Compound: CC1CN(CC2CCN(Cc3ccccc3)CC2)C(=O)N(c2cccc(C(=N)N)c2)C1 (centres undefined)
Outcome Measure: IC50
Number: 3.2
--
Compound: CC(C)C[C@H](NC(=O)OC1(Cc2ccccc2)CCNCC1)C(=O)N[C@@H](CCCNC(=N)N)C(=O)c1nc2ccccc2s1
Outcome Measure: IC50
Number: 0.03

Reported IC50 ( N=C(N)c1cccc(C[C@H](NS(=O)(=O)c2ccc3ccccc3c2)C(=O)N2CCN(C(=O)NCc3ccc(Br)cc3)CC2)c1 ) = 8.4

---

Biological target: Hepatocyte growth factor activator serine protease (Homo sapiens, UniProt Q04756)
Sequence (Q04756 whole entry): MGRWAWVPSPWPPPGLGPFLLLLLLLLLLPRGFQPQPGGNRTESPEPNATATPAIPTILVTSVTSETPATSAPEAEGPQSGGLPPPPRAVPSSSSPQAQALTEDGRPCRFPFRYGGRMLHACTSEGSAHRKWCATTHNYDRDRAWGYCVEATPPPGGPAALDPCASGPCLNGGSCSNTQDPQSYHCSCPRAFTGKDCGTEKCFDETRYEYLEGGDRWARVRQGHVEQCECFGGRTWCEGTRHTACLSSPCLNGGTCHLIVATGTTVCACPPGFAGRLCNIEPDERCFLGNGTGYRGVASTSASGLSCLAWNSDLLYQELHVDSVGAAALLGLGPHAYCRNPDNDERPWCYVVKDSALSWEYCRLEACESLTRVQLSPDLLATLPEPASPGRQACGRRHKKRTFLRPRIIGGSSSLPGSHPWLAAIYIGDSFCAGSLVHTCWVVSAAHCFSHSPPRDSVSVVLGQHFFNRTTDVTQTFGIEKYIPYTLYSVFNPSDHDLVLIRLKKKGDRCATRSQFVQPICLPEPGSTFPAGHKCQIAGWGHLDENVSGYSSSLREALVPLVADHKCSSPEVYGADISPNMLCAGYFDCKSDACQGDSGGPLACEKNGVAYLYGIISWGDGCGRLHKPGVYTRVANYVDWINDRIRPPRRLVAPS
Assay: Inhibition of recombinant HGFA serine protease domain (unknown origin) using Boc-QLR-AMC as substrate preincubated for 30 mins followed by substrate addition by fluorescence based assay
Outcome Measure: pIC50
Conceptually, pIC50 converts a concentration in mol/L into minus its log10.

Worked cases, pIC50 given:
Compound: N=C(N)c1cccc(C[C@H](NS(=O)(=O)c2ccc3ccccc3c2)C(=O)N2CCN(C(=O)NCc3ccc(Br)cc3)CC2)c1
pIC50: 4.52
--
Compound: CC(C)c1cc(C(C)C)c(S(=O)(=O)N[C@@H](Cc2cccc(C(=N)N)c2)C(=O)N2CCN(C(=O)C3CCNCC3)CC2)c(C(C)C)c1
pIC50: 4.96

We next turn to a different compound, shown below.
Reported pIC50 ( CC(C)C[C@H](NC(=O)OC1(Cc2ccccc2)CCNCC1)C(=O)N[C@@H](CCCNC(=N)N)C(=O)c1nc2ccccc2s1 ) = 5.92
